Catalogue of IC50 readings, one per entry.
# TESTED_TARGET: HDAC1 (Homo sapiens, UniProt Q13547)
# Construct: purchased BPS Bioscience
# Sequence (Q13547 whole entry): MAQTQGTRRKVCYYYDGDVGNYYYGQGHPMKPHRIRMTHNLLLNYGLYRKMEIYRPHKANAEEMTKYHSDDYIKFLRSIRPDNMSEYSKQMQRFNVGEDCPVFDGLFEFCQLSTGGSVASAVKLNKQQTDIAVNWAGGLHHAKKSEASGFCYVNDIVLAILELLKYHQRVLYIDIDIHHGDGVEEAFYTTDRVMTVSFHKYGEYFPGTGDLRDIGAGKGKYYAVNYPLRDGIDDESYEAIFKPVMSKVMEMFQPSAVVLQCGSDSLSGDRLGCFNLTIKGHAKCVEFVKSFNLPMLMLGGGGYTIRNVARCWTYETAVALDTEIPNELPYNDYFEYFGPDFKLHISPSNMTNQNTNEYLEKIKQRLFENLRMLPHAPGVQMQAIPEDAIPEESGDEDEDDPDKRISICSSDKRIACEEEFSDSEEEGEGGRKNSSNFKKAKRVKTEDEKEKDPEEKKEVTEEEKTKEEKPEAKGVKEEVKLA
# ASSAY_TEXT: HDAC inhibition assay (Caliper EZ reader, FAM-labeled peptide substrate)
# Type: biochemical
# TEST_CONDITIONS: recombinant human HDAC, 60 min at room temperature, 2 μM substrate
Please state the figure in nM; there is no need to write the unit.

Before answering, review these 2 worked examples.
- O=C(/C=C/c1ccc(CNCC23CC4CC(CC(C4)C2)C3)c(F)c1)NO: 0.8
- O=C(/C=C/c1ccc(CN(CCF)CC23CC4CC(CC(C4)C2)C3)cc1)NO: 222

Lab note: next compound to report on.
For CN(Cc1ccc(/C=C/C(=O)Nc2ccccc2N)cc1)CC12CC3CC(CC(C3)C1)C2 [drawing 61] on HDAC1 (Homo sapiens, UniProt Q13547), measured IC50 was 149

====

# ASSAY_TEXT: Intraperitoneal pharmacokinetics and brain distribution assay
# Format: in vivo, male Sprague Dawley rats
# TEST_CONDITIONS: male, Sprague Dawley, rat, brain/plasma, ip; single i.p. dose 1 mg/kg; read-out: Brain-to-plasma exposure ratio
ASSAY_ENDPOINT: Kp

Recorded Kp (compound `CN(Cc1ccc(/C=C/C(=O)Nc2ccccc2N)cc1)CC12CC3CC(CC(C3)C1)C2` ): 20.6

====

# ASSAY_TEXT: Intravenous pharmacokinetics and brain distribution assay
# Format: in vivo, male Sprague Dawley rats
# TEST_CONDITIONS: male, Sprague Dawley, rat, plasma, iv; single i.v. dose 1 mg/kg
ASSAY_ENDPOINT: clearance (mL/min/kg)
Please state the figure in mL/min/kg; there is no need to write the unit.

Recorded clearance (compound `CN(Cc1ccc(/C=C/C(=O)Nc2ccccc2N)cc1)CC12CC3CC(CC(C3)C1)C2` ): 79

====

Catalogue of IC50 readings, one per entry.
# TESTED_TARGET: UniProt Q9UBN7
# Sequence (Q9UBN7 1-1215): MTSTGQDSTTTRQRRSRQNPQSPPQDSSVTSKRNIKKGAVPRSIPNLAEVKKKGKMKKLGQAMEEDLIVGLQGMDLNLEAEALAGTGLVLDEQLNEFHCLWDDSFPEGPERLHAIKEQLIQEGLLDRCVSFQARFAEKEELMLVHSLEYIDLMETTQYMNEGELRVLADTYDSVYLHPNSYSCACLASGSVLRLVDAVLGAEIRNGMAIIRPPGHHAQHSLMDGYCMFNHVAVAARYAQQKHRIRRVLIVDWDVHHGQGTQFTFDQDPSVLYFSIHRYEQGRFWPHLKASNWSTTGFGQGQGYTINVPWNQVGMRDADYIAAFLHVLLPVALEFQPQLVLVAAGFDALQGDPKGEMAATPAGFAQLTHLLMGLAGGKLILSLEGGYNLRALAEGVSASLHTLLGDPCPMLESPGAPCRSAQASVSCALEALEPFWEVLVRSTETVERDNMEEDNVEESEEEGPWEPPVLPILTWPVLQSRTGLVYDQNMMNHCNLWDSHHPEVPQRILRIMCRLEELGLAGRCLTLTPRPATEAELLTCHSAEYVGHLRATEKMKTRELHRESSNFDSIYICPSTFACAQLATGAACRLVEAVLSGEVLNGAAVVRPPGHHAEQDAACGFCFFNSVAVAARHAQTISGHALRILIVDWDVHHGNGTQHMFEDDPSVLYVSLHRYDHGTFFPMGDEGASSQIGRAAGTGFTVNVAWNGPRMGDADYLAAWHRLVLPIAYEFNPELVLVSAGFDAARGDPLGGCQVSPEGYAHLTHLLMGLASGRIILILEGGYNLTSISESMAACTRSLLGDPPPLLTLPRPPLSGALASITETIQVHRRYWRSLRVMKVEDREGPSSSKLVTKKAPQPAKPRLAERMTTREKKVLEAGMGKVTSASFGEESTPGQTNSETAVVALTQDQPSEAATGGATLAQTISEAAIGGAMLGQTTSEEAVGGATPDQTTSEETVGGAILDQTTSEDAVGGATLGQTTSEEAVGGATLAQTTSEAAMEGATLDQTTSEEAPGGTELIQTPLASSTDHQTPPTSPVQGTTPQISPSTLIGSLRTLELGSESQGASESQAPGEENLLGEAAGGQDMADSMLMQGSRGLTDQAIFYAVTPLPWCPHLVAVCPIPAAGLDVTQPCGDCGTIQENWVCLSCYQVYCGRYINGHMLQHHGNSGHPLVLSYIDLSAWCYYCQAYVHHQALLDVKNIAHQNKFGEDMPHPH
# ASSAY_TEXT: HDAC inhibition assay (Caliper EZ reader, FAM-labeled peptide substrate)
# TEST_CONDITIONS: recombinant human HDAC, 60 min at room temperature, 2 μM substrate

Before answering, review these 2 worked examples.
* O=C(/C=C/c1ccc(CN(CCF)CC23CC4CC(CC(C4)C2)C3)cc1)NO | 0.308 µM
* O=C(/C=C/c1ccc(CNCC23CC4CC(CC(C4)C2)C3)c(F)c1)NO | > 40 µM

Lab note: next compound to report on.
Recorded IC50 (compound CN(Cc1ccc(/C=C/C(=O)Nc2ccccc2N)cc1)CC12CC3CC(CC(C3)C1)C2 [drawing 61] ): > 10 µM

====

# TESTED_TARGET: HDAC7 (Homo sapiens, UniProt Q8WUI4)
# Construct: purchased BPS Bioscience
# Sequence (Q8WUI4 1-952): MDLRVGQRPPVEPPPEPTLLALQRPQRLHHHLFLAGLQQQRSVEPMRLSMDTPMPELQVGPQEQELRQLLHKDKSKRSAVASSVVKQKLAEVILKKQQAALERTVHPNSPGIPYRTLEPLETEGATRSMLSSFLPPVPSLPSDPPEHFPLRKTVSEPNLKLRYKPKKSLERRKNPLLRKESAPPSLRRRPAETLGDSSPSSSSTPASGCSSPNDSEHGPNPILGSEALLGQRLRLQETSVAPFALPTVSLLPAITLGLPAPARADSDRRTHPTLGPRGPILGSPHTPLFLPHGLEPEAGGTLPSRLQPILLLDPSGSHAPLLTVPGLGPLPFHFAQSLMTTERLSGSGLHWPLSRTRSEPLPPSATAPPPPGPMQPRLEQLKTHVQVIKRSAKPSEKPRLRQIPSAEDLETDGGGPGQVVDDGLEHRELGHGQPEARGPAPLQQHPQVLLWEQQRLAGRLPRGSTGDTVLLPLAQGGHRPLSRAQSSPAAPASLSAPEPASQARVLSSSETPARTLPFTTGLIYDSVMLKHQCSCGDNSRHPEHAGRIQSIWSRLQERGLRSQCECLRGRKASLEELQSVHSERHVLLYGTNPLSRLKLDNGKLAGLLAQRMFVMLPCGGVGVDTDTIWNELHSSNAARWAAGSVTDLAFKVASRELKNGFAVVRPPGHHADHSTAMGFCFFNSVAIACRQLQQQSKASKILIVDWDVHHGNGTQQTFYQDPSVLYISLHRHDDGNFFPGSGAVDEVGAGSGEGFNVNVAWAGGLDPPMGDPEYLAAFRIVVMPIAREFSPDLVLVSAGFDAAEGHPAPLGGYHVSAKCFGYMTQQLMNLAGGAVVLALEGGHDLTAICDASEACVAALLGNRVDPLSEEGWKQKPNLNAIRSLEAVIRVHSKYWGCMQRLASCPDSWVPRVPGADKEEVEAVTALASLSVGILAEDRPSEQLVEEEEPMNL
# ASSAY_TEXT: HDAC inhibition assay (Caliper EZ reader, FAM-labeled peptide substrate)
# Assay type: biochemical
# TEST_CONDITIONS: recombinant human HDAC, 60 min at room temperature, 2 μM substrate
pIC50: −log10 of the molar value.
ASSAY_ENDPOINT: pIC50

- CN(Cc1ccc(/C=C/C(=O)Nc2ccccc2N)cc1)CC12CC3CC(CC(C3)C1)C2 [drawing 61]: < 4.40
- O=C(/C=C/c1ccc(CN(CCF)CC23CC4CC(CC(C4)C2)C3)cc1)NO: < 4.52

Lab note: next compound to report on.
Recorded pIC50 (compound `O=C(/C=C/c1ccc(CNCC23CC4CC(CC(C4)C2)C3)c(F)c1)NO` ): < 4.15

====

Catalogue of IC50 readings, one per entry.
# TESTED_TARGET: UniProtKB O15379
# Sequence (O15379 whole entry): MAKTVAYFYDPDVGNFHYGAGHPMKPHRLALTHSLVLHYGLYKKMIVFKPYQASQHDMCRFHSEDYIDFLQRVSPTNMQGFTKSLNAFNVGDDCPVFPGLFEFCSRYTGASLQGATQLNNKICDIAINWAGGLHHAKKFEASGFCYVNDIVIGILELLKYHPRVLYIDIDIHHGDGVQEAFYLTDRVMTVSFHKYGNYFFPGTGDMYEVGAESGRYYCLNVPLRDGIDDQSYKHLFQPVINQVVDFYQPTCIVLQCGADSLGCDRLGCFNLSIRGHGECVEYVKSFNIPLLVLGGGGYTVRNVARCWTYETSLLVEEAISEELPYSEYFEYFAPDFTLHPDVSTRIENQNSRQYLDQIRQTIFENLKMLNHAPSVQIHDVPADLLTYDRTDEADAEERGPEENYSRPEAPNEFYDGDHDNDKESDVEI
# Sequence (Q9Y618 395-489 partner limits assumed): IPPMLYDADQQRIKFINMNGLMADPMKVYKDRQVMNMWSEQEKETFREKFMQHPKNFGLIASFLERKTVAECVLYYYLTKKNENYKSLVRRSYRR
# ASSAY_TEXT: HDAC inhibition assay (Caliper EZ reader, FAM-labeled peptide substrate)
# TEST_CONDITIONS: recombinant human HDAC, 60 min at room temperature, 2 μM substrate
Please state the figure in nM; there is no need to write the unit.

• O=C(/C=C/c1ccc(CN(CCF)CC23CC4CC(CC(C4)C2)C3)cc1)NO = 470
• O=C(/C=C/c1ccc(CNCC23CC4CC(CC(C4)C2)C3)c(F)c1)NO = 0.5

Lab note: next compound to report on.
For CN(Cc1ccc(/C=C/C(=O)Nc2ccccc2N)cc1)CC12CC3CC(CC(C3)C1)C2 [drawing 61] on UniProtKB O15379, measured IC50 was 216

====

# TESTED_TARGET: HDAC4 (Homo sapiens)
# Sequence (P56524 whole entry): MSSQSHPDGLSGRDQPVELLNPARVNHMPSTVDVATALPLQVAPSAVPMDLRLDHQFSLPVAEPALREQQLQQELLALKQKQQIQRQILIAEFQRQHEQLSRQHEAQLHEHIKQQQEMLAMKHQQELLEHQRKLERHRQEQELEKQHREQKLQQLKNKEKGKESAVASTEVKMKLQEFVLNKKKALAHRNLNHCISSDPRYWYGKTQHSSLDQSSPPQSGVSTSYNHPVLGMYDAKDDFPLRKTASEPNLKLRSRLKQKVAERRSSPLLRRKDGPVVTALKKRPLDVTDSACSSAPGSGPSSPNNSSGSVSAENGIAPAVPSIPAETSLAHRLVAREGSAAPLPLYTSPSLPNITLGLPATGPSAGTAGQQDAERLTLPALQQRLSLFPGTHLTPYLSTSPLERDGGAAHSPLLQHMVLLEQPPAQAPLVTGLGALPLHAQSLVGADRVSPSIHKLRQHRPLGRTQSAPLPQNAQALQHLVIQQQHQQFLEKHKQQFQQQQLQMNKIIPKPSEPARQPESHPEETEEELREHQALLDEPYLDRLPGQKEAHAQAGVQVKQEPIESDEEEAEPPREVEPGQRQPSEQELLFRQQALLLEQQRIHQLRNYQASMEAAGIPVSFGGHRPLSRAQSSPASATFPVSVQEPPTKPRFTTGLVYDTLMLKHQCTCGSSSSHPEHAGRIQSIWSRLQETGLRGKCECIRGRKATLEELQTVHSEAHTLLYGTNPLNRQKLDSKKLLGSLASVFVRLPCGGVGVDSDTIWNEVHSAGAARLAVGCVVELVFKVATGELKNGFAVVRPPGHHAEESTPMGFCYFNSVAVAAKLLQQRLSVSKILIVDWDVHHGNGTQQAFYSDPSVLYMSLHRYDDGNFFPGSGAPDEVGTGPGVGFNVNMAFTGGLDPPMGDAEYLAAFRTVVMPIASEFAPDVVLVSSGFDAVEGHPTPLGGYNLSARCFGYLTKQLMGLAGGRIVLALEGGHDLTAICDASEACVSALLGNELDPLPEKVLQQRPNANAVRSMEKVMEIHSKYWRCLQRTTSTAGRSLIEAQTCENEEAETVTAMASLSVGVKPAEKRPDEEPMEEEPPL
# ASSAY_TEXT: HDAC inhibition assay (Caliper EZ reader, FAM-labeled peptide substrate)
# TEST_CONDITIONS: recombinant human HDAC, 60 min at room temperature, 2 μM substrate
Catalogue of IC50 readings, one per entry.

* O=C(/C=C/c1ccc(CN(CCF)CC23CC4CC(CC(C4)C2)C3)cc1)NO | > 12 µM

For `O=C(/C=C/c1ccc(CNCC23CC4CC(CC(C4)C2)C3)c(F)c1)NO` on HDAC4 (Homo sapiens), measured IC50 was > 70 µM

The measured values listed here are drawn from patent US20170349540A1.
